assay: Redox Reaction Profiling qHTS: Assay Interference Panel against the NCATS CANVASS Library (AID 1347401); details: resazurin-DTT redox cycling, fluorescence, 15 min; series mostly up to 57.1 µM
Results filed as inconclusive are left out. Calls of active or inactive are those of the source. Calls come from the whole dose curve; as a rule, active = well fitted activation curve with a large enough effect; inconclusive = small, poorly fitted or top-dose-only effect; inactive = no such curve, though single readings can be large or run the other way.
Outcome (select one): active, inactive

Answered cases to consult:
# Compound, Label
data = [
    ("C[C@@]12CCC[C@@](C)(C(=O)O)[C@H]1CC[C@]13C[C@H]4C[C@H](O[C@@]4(C)C1)[C@H]32", "inactive"),
    ("CCCCCC[C@H](CCCCC[C@@H](O)C(N)=O)OC(=O)[C@@H]1CC=CN1C(=O)c1ccccc1O", "inactive"),
    ("CC(=O)[C@@H]1[C@@H](O)C[C@H]2[C@]3(C)CC[C@H]4C(C)(C)CCC[C@]4(CO)[C@H]3C[C@H]3OC(=O)[C@@H]1[C@@]32C", "inactive"),
]

IN: Identify the outcome logged in this assay for the compound shown: CO[C@@H]1[C@H](O)[C@@H](C)O[C@@H](OC[C@@H]2C(C)OC(=O)/C=C/[C@H](C)C(O[C@@H]3O[C@H](C)CC4(OC(=O)O[C@@H]4C)C3O)[C@@H](C)CC(C)C(=O)CC[C@H]3OC23)[C@@H]1OC (some centres undefined)
OUT: inactive

IN: Identify the outcome logged in this assay for the compound shown: C[C@@H](O)[C@H]1OC(=O)C=C2[C@]3(C)[C@H]4[C@H](OC(=O)[C@@]4(C)[C@@H](O)[C@H]4O[C@H]43)[C@H]3O[C@@]231
OUT: inactive

IN: Identify the outcome logged in this assay for the compound shown: Oc1ccc(C2c3c(O)cc(O)cc3[C@@H]3C(c4ccc(O)cc4)c4c(O)cc(O)cc4[C@H]23)cc1 (some centres undefined)
OUT: inactive

IN: Identify the outcome logged in this assay for the compound shown: C/C=C1/CC[C@@H]2c3[nH]c4ccccc4c3CCN2C1
OUT: inactive

IN: Identify the outcome logged in this assay for the compound shown: C=C1/C=C\C(CCC)=C\c2csc(n2)C(C)NC(=O)C[C@@]2(CC(=O)O)CCC(=C)[C@H](C1)S2 (some centres undefined)
OUT: inactive

IN: Identify the outcome logged in this assay for the compound shown: CCC[C@@H](C)/C=C(\C)[C@H](O)[C@H](C)/C=C/CC[C@@H](O)[C@H](C)[C@H](O)[C@H](C)[C@H](O)[C@H](C)[C@H]1O[C@H]([C@H](C)C(=O)O)CC[C@@H]1C
OUT: inactive

IN: Identify the outcome logged in this assay for the compound shown: CN1C(=O)[C@]23SS[C@@]1(C)C(=O)N2[C@H]1Nc2ccccc2[C@]1(c1c[nH]c2ccccc12)[C@@H]3O
OUT: active

IN: Identify the outcome logged in this assay for the compound shown: C[C@H]1C[C@@H]([C@@H]2CC[C@]34O[C@H](CC[C@@]35C[C@H](C)C(=O)O5)CN24)OC1=O
OUT: inactive

* * *

experiment: KB-8-5-11 Cancer Cell Toxicity qHTS against the NCATS CANVASS Library (AID 1347364); details: KB-8-5-11 MDR cells viability, CellTiter-Glo, 72 h; series mostly up to 46.1 µM; note: nearly all actives have a fitted effect of over 75% in size
Records with an inconclusive call do not appear. The source made the active and inactive calls. Calls follow the shape of the dose curve; as a rule, active = well fitted cell-killing curve with a large enough effect; inconclusive = small, poorly fitted or top-dose-only effect; inactive = flat fitted curve, though single readings scatter.
Outcome (select one): TRUE = active, FALSE = inactive

Answered cases to consult:
# Compound, Label
records = [
    ("C/C=C/C(=O)[C@@H](C)C1=CC(=O)C2=C(O[C@@]34CC[C@H](O)C(C)(C)[C@@H]3CC[C@H](C)[C@@]4(C)C2)C1=O", "TRUE"),
    ("CC1=CC[C@@]2(C[C@@H]1O)[C@@H](C(=O)O)CC[C@H]2C(C)C", "FALSE"),
    ("CS/C=C/C(N)=O", "FALSE"),
]

IN: Identify the outcome logged in this assay for the compound shown: CN1CC[C@]2(c3cccc4c3N[C@@H]3N(C)CC[C@]43[C@@]34CCN(C)[C@@H]3Nc3ccccc34)c3ccccc3N[C@H]12
OUT: TRUE

IN: Identify the outcome logged in this assay for the compound shown: C[C@@H]1C[C@H]2C[C@]3(CCCCN3C)[C@@H]3C[C@H]2[C@H](C1)N(C)C3
OUT: FALSE
